tested on: DIV14; test: qHTS profiling for inhibitors of Plasmodium falciparum proliferation (AID 504749); note: nearly all actives have a fitted effect of over 60% in size; conditions: P. falciparum in erythrocytes, SYBR Green DNA, 72 h; series mostly up to 28.7 µM
Records with an inconclusive call do not appear. Calls of active or inactive are those of the source. Calls come from the whole dose curve; as a rule, active = well fitted inhibition curve with a large enough effect; inconclusive = small, poorly fitted or top-dose-only effect; inactive = flat fitted curve, though single readings scatter.
Assign a class; possible classes are Y = active, N = inactive

Please review the following examples before continuing.
{"CHEMICAL STRING": "CCCCc1oc2ccccc2c1C(=O)c1cc(I)c(OCCN(CC)CC)c(I)c1", "CLASS LABEL": "Y"}
{"CHEMICAL STRING": "NC12CC3CC(CC(C3)C1)C2", "CLASS LABEL": "N"}
{"CHEMICAL STRING": "CN(CCOc1ccc(NS(C)(=O)=O)cc1)CCc1ccc(NS(C)(=O)=O)cc1", "CLASS LABEL": "N"}
{"CHEMICAL STRING": "CC(=O)OCC(CCn1cnc2cnc(N)nc21)COC(C)=O", "CLASS LABEL": "N"}
{"CHEMICAL STRING": "CN(C)c1nc(N(C)C)nc(N(C)C)n1", "CLASS LABEL": "N"}

Below: the item to evaluate.
Req: What outcome does the record of this test show for "Cc1cn([C@H]2C[C@H](N=[N+]=[N-])[C@@H](CO)O2)c(=O)[nH]c1=O" ?
Resp: N

* * *

assay: Quantitative High-Throughput drug screen in 47 multiple myeloma cell lines against the NCATS MIPE library collection: XG6_PLB cell viability assay (AID 1919865); settings: XG6 myeloma viability, CellTiter-Glo ATP luminescence, 48 h; series mostly up to 45.8 µM; note: nearly all actives have a fitted effect of over 40% in size; note: potency is the fitted concentration of half-maximal effect
Records with an inconclusive call do not appear. Activity calls are given as the source filed them. Calls come from the whole dose curve; as a rule, active = well fitted cell-killing curve with a large enough effect; inconclusive = small, poorly fitted or top-dose-only effect, or effect the other way; inactive = no such curve, though single readings can be large or run the other way.
ASSAY ENDPOINT: Potency

See these solved cases before continuing.
{"COMPOUND": "CN(Cc1cnc2nc(N)nc(N)c2n1)c1ccc(C(=O)N[C@@H](CCC(=O)O)C(=O)O)cc1", "ASSAY ENDPOINT": "Potency", "REPORTED MEASUREMENT": "0.0469 µM (active)"}
{"COMPOUND": "Nc1nc2c(ncn2COC(CO)CO)c(=O)[nH]1", "ASSAY ENDPOINT": "Potency", "REPORTED MEASUREMENT": "20.9 µM (active)"}
{"COMPOUND": "CC(=O)OCC(CCn1cnc2cnc(N)nc21)COC(C)=O", "ASSAY ENDPOINT": "Potency", "REPORTED MEASUREMENT": "inactive"}
{"COMPOUND": "CC1(C)O[C@H]2CC(=O)OC[C@]23[C@H]2CC[C@@]4(C)[C@H](c5ccoc5)OC(=O)[C@H]5O[C@]54[C@]2(C)C(=O)C[C@@H]13", "ASSAY ENDPOINT": "Potency", "REPORTED MEASUREMENT": "inactive"}
{"COMPOUND": "Cc1ccccc1N1C(=O)c2cc(S(N)(=O)=O)c(Cl)cc2NC1C (stereo unspecified)", "ASSAY ENDPOINT": "Potency", "REPORTED MEASUREMENT": "inactive"}
{"COMPOUND": "NCCS(=O)(=O)O", "ASSAY ENDPOINT": "Potency", "REPORTED MEASUREMENT": "inactive"}
{"COMPOUND": "Clc1ccccc1C(c1ccccc1)(c1ccccc1)n1ccnc1", "ASSAY ENDPOINT": "Potency", "REPORTED MEASUREMENT": "5.9 µM (active)"}
{"COMPOUND": "C[C@@H]1CC(=O)NN=C1c1ccc(NN=C(C#N)C#N)cc1", "ASSAY ENDPOINT": "Potency", "REPORTED MEASUREMENT": "23.5 µM (active)"}
{"COMPOUND": "COc1ccccc1OCC(O)CN1CCN(CC(=O)Nc2c(C)cccc2C)CC1 (stereo unspecified)", "ASSAY ENDPOINT": "Potency", "REPORTED MEASUREMENT": "inactive"}
{"COMPOUND": "CN1C(C(=O)Nc2ccccn2)=C(O)c2ccccc2S1(=O)=O", "ASSAY ENDPOINT": "Potency", "REPORTED MEASUREMENT": "inactive"}

Here's the next entry for you.
Req: Supply measured Potency of "CCOC(=O)Nc1ccc(NCc2ccc(F)cc2)nc1N" in your reply.
Resp: 14.8 µM (active)

* * *

tested on: CP262; assay: qHTS profiling for inhibitors of Plasmodium falciparum proliferation (AID 504749); note: nearly all actives have a fitted effect of over 60% in size; conditions: P. falciparum in erythrocytes, SYBR Green DNA, 72 h; series mostly up to 28.7 µM
Inconclusive results are not listed. Activity calls are given as the source filed them. Calls follow the shape of the dose curve; as a rule, active = well fitted inhibition curve with a large enough effect; inconclusive = small, poorly fitted or top-dose-only effect; inactive = flat fitted curve, though single readings scatter.
ASSAY ENDPOINT: outcome

Reference set (5 entries):
{"COMPOUND": "Cc1cc(C(C)(C)C)c(O)c(C)c1CC1=NCCN1", "outcome": "inactive"}
{"COMPOUND": "CC(CCc1ccc(O)cc1)NCCc1ccc(O)c(O)c1 (configuration not stated)", "outcome": "inactive"}
{"COMPOUND": "NS(=O)(=O)c1cc2c(cc1Cl)NCNS2(=O)=O", "outcome": "inactive"}
{"COMPOUND": "Cc1cnc(C(=O)NCCc2ccc(S(=O)(=O)NC(=O)NC3CCCCC3)cc2)cn1", "outcome": "inactive"}
{"COMPOUND": "COc1ccc(CCN(C)CCCC(C#N)(c2ccc(OC)c(OC)c2)C(C)C)cc1OC (configuration not stated)", "outcome": "inactive"}

Items follow; give outcome for each.
1. CN1C(C(=O)Nc2ccccn2)=C(O)c2ccccc2S1(=O)=O
2. NCCCCCC(=O)O
3. Nc1nc2c(ncn2COC(CO)CO)c(=O)[nH]1
4. NCCS(=O)(=O)O
5. CC(COc1ccccc1)N(CCCl)Cc1ccccc1 (configuration not stated)
6. O=c1c(-c2ccc(O)cc2)coc2cc(O)cc(O)c12

Resp:
inactive
inactive
inactive
inactive
inactive
inactive

Req: Provide only the value of recorded outcome for "CC12CC3CC(C)(C1)CC(N)(C3)C2"
Resp: inactive

* * *

assay: Validation screen for small molecules that induce genotoxicity in human embryonic kidney (HEK293T) cells expressing luciferase-tagged ELG1 (AID 493106); settings: luminescence; series mostly up to 46.1 µM
Inconclusive results are not listed. Calls of active or inactive are those of the source. Calls follow the shape of the dose curve; as a rule, active = well fitted activation curve with a large enough effect; inconclusive = small, poorly fitted or top-dose-only effect; inactive = no such curve, though single readings can be large or run the other way.
Give one outcome, nothing more. List: active, inactive

Observe how each entry below is paired with its result.
{"COMPOUND": "CCCNCC(O)COc1ccccc1C(=O)CCc1ccccc1 (stereo not given)", "CLASS LABEL": "inactive"}
{"COMPOUND": "O=C1c2c(O)ccc(O)c2C(=O)c2c(NCCNCCO)ccc(NCCNCCO)c21", "CLASS LABEL": "inactive"}
{"COMPOUND": "Cn1c(=O)c2c(ncn2C)n(C)c1=O", "CLASS LABEL": "inactive"}
{"COMPOUND": "COC(=O)Nc1nc2ccc(C(=O)c3cccs3)cc2[nH]1", "CLASS LABEL": "active"}
{"COMPOUND": "CN1C(C(=O)Nc2ccccn2)=C(O)c2ccccc2S1(=O)=O", "CLASS LABEL": "inactive"}

Req: Fill in: this test's call for "NS(=O)(=O)c1cc2c(cc1Cl)NCNS2(=O)=O" is ___
Resp: inactive

Req: Call for entry "CC[N+](CC)(CC)CCOc1cccc(OCC[N+](CC)(CC)CC)c1OCC[N+](CC)(CC)CC" :
Resp: inactive

Req: Assay outcome for "CN1CCN(C2=Nc3cc(Cl)ccc3Nc3ccccc32)CC1" : what was it?
Resp: inactive

Req: Fill in: this test's call for "CN(C)CCOC(c1ccccc1)c1ccccc1" is ___
Resp: inactive

Req: Called result for "CCCCc1oc2ccccc2c1C(=O)c1cc(I)c(OCCN(CC)CC)c(I)c1"
Resp: inactive

Req: Any idea what this test logged for "CS(=O)(=O)Nc1ccc([N+](=O)[O-])cc1Oc1ccccc1" ?
Resp: inactive

Req: Given "CN(C)CCC=C1c2ccccc2C=Cc2ccccc21" , state the outcome it received in this test.
Resp: inactive

Req: Hi team, can someone confirm the assay call for "CC12CC3CC(C)(C1)CC(N)(C3)C2" ?
Resp: inactive

Req: // return assay outcome for COc1ccccc1N1CCN(CC(O)COc2cccc3ccccc23)CC1 (stereo not given)
Resp: inactive

Req: # lookup: test call for CC(CCc1ccc(O)cc1)NCCc1ccc(O)c(O)c1 (stereo not given)
Resp: inactive

Req: Hey, what did the test say about CN1C2CCC1CC(OC(=O)C(CO)c1ccccc1)C2 (stereo not given) ?
Resp: inactive

Req: Field: outcome | Entry: CCC1(C)CC(=O)NC1=O (stereo not given)
Resp: inactive

Req: What did the test return for "CN1CCC(=C2c3ccccc3CC(=O)c3sccc32)CC1" ?
Resp: inactive

Req: Per the records of this test, what outcome belongs to "Cc1cc(C(C)(C)C)c(O)c(C)c1CC1=NCCN1" ?
Resp: inactive

Req: # fetch the recorded call for "NCCc1cnc[nH]1" here
Resp: inactive
